testSystem: T1, human NMI (N-myc Interacting protein), recombinant protein (human, UniProt Q13287 1-307, limits assumed)
T1 construct: Gene ID: 9111; also called hNMI; antigen
T1 sequence (looked up): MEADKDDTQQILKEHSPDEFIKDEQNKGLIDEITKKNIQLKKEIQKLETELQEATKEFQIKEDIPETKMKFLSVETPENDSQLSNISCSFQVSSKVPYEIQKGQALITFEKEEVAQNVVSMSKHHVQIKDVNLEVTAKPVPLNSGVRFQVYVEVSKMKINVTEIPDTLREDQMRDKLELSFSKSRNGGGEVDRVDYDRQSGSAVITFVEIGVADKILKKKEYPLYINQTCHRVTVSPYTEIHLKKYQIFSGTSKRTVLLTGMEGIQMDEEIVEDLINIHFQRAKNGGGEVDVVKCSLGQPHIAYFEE
experimentalProtocol: sandwich ELISA; detection 94C4-1-biotin 1µg/mL; hNMI 781.250 pg/mL

- binder: "monoclonal antibody B-8 (antibody, V domains shown, Rabbit monoclonal antibody; also called B8-1) VH: QSLEESGGDLVKPGASLTLTCTASGFSFSSSYYMCWVRQAPGKGLEWIACIYAGSSGSTYYASWAKGRFTISKTSSTTVTLQMTSLTAADTATYFCAREYSYDDYGDFWGFNLWGPGTLVTVSS VL: ALVMTQTPSSVSAAVGGTVTINCQASQNIYTNLAWYQQKPGQPPKLLIYGASNLESGVPSRFKGSGSGTEYTLTISDLECDDAATYYCQSSLYSRIADRANAFGGGTEVVVK"
  OD450, OD450: 0.288
- binder: "monoclonal antibody 98G10 (antibody, V domains shown, Rabbit monoclonal antibody) VH: QEQLEESGGDLVKPEGSLTLTCTASGFSFSASYWICWVRQAPGKGLEWIACIYGGSSGSAYYASWAKGRFTISKTSSTTVTLQMTSLTAADTATYFCARAGYYNYGSAGDIYPSSFKLWGPGTLVTVSS VL: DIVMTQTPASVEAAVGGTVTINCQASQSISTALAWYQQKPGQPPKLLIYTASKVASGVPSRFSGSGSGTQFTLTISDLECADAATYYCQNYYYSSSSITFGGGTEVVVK"
  OD450, OD450: 0.341
- binder: "monoclonal antibody 39B4 (antibody, V domains shown, Rabbit monoclonal antibody; also called 39B4-1) VH: QEQLVESGGGLVQPEGSLTLTCTASGFSFSSSYWICWVRQAPGKGLEWIACIYAGTSGSTYYASWAKGRFTISKTSSTTVDLQMNSLTAADTATYFCARAGYYTYGAGVYIYPSSFKLWGPGTLVTVSS VL: DVVMTQTPASVEAAVGGTVTIKCQASESIGNALAWYQQKPGQPPKLLIYSASNLASGVPSRFSGSGSGTQFTLTISDLECADAATYYCQSYYYSSSSITFGGGTEVVVK"
  OD450, OD450: 0.381
- binder: "monoclonal antibody 240B10-1 (antibody, V domains shown, Rabbit monoclonal antibody) VH: QSLEESGGRLVTPGGSLTLTCTVSGIDLSSYTMGWVRQAPGKGLEYIGIISGGGRTYYASWAKGRFTISKTSSTTVDLKVTSLTTEDTATYFCARIYTLWGQGTLVTVSS VL: QVLTQTLASVSAAVGGTVTINCQSSQSVYNNDYLAWFQQKSGQPPKQLIHSASKLASGVPSRFKGSGSGTQFTLTINDVQCDDAATYYCLGGYDCYSADCNVFGGGTEVVVK"
  OD450, OD450: 0.351
